Biological target: T1, human IL-36α(R12), truncated (human, UniProt Q9UHA7 6-158)
T1 chain: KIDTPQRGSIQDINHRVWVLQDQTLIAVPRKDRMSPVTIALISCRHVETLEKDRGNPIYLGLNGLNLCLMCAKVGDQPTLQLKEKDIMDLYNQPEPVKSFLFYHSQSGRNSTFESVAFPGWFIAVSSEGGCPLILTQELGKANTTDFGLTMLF
Test: cell-based or functional assay
test-readout: IC50 of IL-8 secretion, primary human monocytes, 20 nM human IL-36α, FIG. 5A (nM)
Kindly answer with a numeric value in nM, unit omitted.

Data request: Param item = chimeric m/h 144D464A (antibody, human IgG1, lambda, V domains shown, Mouse VH/VL joined to human IgG1 constant and human Ig lambda (IGLC2) constant; also called chimeric mouse/human (m/h) 144D464A antibody) VH: EVQLQQSGAELVKPGASVRLSCTASGFNIKDTYIHWVKQRPEQGLEWIGRIDPAIGTTRYDPKFQGKATITTDTSSDTVHLQFSSLTSEDTAVYYCARLHYFGNNFFFDYWGQGTTLTVSS VL: QAVVTQESALTTSPGEAVTLTCRSSSGAVTTSNYANWVQEKPDHLFAGLIGGTNDRAPGVPARFSGSLIGDKAALTITGAQTEDEAIYFCALWFSNHWVFGGGTKLTVLG ; retrieve measured IC50 of IL-8 secretion, primary human monocytes, 20 nM human IL-36α, FIG. 5A.
Data returned: 7.15

Data request: Param item = 144L249B (antibody, V domains shown, Mouse monoclonal from hybridoma; mouse IgG heavy and lambda light chain; also called mouse antibody 144L249B) VH: EVQLQQSGAELVKPGASVKLSCTASGFNIKDTYIYWVKQRPEQGLEWIGRIDPAIGTTRYDPKFQGKATLTADTSSNTAFLQLSSLTSEDTAVYYCARYDYSGSSFYFDYWGRGTTLTVSS VL: QAVVTQESALTTSPGETVTLTCRSSTGAVTTSNYANWVQEKPDHLFTGLIGGTNNRAPGVPARFSGSLIGDKAALTITGAQTEDEAIYFCALWYSNHLVFGGGTKLTVL ; retrieve measured IC50 of IL-8 secretion, primary human monocytes, 20 nM human IL-36α, FIG. 5A.
Data returned: 27.1

// switching to the query binder
Data request: Param item = 144L133B (antibody, V domains shown) VH: EVQLQQSGAELVKPGASVKLSCTASGFNIKDTYMYWVKQRPEQGLEWIGRIDPAIGTTRYDPKFQGKATLTADTSSNTAFLQLSSLTSEDTAVYYCARYDYSGSSFYFDYWGRGTTLTVSS VL: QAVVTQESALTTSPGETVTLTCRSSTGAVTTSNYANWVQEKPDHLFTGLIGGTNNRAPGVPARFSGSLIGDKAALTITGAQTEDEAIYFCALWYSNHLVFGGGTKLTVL ; retrieve measured IC50 of IL-8 secretion, primary human monocytes, 20 nM human IL-36α, FIG. 5A.
Data returned: 39.5
